Data provenance: patent US12264134B2

target: IDO1 (Homo sapiens, UniProt P14902); experiment: IDO1 Cellular Assay in HeLa Cells Stimulated with IFNγ; format: cell-based; settings: read-out: HeLa Cell Potency, IC50
Sequence (P14902 whole entry): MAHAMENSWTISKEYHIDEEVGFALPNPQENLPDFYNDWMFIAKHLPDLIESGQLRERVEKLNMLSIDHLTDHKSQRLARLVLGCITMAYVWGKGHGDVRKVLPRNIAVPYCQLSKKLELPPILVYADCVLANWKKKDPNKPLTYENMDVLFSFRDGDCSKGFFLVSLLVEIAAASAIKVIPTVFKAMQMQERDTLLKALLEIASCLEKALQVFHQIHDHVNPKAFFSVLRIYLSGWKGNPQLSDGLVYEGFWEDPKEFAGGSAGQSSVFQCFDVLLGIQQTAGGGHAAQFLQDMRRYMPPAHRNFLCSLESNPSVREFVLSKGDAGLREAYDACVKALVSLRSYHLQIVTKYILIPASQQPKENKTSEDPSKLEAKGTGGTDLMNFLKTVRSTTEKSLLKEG

{"columns": ["compound", "IC50"],
 "data": [
  ["Cc1cccc(N2CCN(C(=O)Cn3nc(C(=O)N4CC[C@H](O)[C@H](F)C4)c4c3CCC4C(F)F)CC2)c1C (mixture of isomers) [Example 19]", "113 nM"],
  ["C[C@@H]1CN(C(=O)c2nn(CC(=O)N3CCN(c4ccc(F)c(F)c4)CC3)c3c2CCC3)C[C@H](C)O1", "233 nM"],
  ["Cc1c(Cl)cccc1N1CCN(C(=O)Cn2nc(C(=O)N3CCN(C(=O)CO)CC3)c3c2CCC(F)C3)CC1 (stereo not drawn) [Example 371]", "15.7 nM"]
]}

----------
biological target: IDO1 (Homo sapiens); assay: IDO1 Cellular Assay in HeLa Cells Stimulated with IFNγ; type: cell-based; conditions: read-out: HeLa Cell Potency, IC50
Each record's IC50 is compared with low: < 4 nM; medium: ≥ 4 nM and < 30 nM; high: ≥ 30 nM to give its class.

{"columns": ["molecule", "label_value"],
 "data": [
  ["Cc1cccc(N2CCN(C(=O)Cn3nc(C(=O)N4CCN(CC(F)F)CC4)c4c3C[C@H]3C[C@@H]43)CC2)c1C", "low"],
  ["Cc1cccc(N2CCN(C(=O)Cn3nc(C(=O)N4CCC(O)(CCC(F)(F)F)CC4)c4c3CCC4)CC2)c1C", "medium"],
  ["Cc1cccc(N2CCN(C(=O)Cn3nc(C(=O)N4CCC(CO)(CO)CC4)c4c3C[C@H]3C[C@@H]43)CC2)c1C", "low"],
  ["C[C@@H]1CN(C(=O)c2nn(CC(=O)N3CCN(c4cccc5c4CCCC5)CC3)c3c2CCC3)C[C@H](C)O1", "medium"],
  ["Cc1cccc(N2CCN(C(=O)Cn3nc(C(=O)N4CCC(O)(CF)C4)c4c3CCC4)CC2)c1C (stereo not drawn) [Example 485]", "high"],
  ["Cc1cccc(N2CCN(C(=O)Cn3nc(C(=O)N4CC[C@H](O)[C@H](F)C4)c4c3CCCC4)CC2)c1C", "medium"],
  ["Cc1cccc(N2CCN(C(=O)Cn3nc(C(=O)N4C[C@@H](C)O[C@@H](C)C4)c4c3CC[C@H](C(F)(F)F)C4)CC2)c1C", "medium"],
  ["Cc1cccc(N2CCN(C(=O)Cn3nc(C(=O)N4CCC5(CC4)CC5CO)c4c3CCC4)CC2)c1C (stereo not drawn)", "low"],
  ["Cc1cccc(N2CCN(C(=O)Cn3nc(C(=O)N4CC[C@H](O)[C@@H](F)C4)c4c3CC(O)C4)CC2)c1C (mixture of isomers) [Example 414]", "high"],
  ["COc1ccc(N2CCN(C(=O)Cn3nc(C(=O)N4C[C@@H](C)O[C@@H](C)C4)c4c3CCC4)CC2)c(C)c1", "high"],
  ["Cc1c(F)ccc(N2CCN(C(=O)Cn3nc(C(=O)N4CCC(O)CC4(C)C)c4c3CCCC4)CC2)c1C (stereo not drawn)", "low"],
  ["Cc1cccc(N2CCN(C(=O)Cn3nc(C(=O)N4CCC(F)(CO)C4)c4c3CCC4)CC2)c1C (stereo not drawn)", "medium"],
  ["Cc1cccc(N2CCN(C(=O)Cn3nc(C(=O)N4CCC(S(C)(=O)=O)CC4)c4c3CCC4)CC2)c1C", "medium"],
  ["Cc1cccc(N2CCN(C(=O)Cn3nc(C(=O)N4CCN(S(C)(=O)=O)CC4)c4c3CCC4)CC2)c1C", "low"],
  ["Cc1cccc(N2CCN(C(=O)Cn3nc(C(=O)N4CCC(O)(CF)C4)c4c3CCC4)CC2)c1C (single isomer, unassigned) [Example 484]", "high"],
  ["Cc1cccc(N2CCN(C(=O)Cn3nc(C(=O)N4C[C@@H](C)O[C@@H](C)C4)c4c3C[C@@H]3C[C@H]43)CC2)c1C", "medium"],
  ["Cc1cccc(N2CCN(C(=O)Cn3nc(C(=O)N4CCCC4)c4c3CCC4)CC2)c1C", "medium"],
  ["Cc1cccc(N2CCN(C(=O)Cn3nc(C(=O)N4CC5(CNC5)C4)c4c3C[C@H]3C[C@@H]43)CC2)c1C", "high"],
  ["Cc1cccc(N2CCN(C(=O)Cn3nc(C(=O)N4CC5CCC4CC5O)c4c3CCC4)CC2)c1C (stereo not drawn) [Example 152]", "high"],
  ["Cc1cccc(N2CCN(C(=O)Cn3nc(C(=O)N4CC[C@H](O)[C@@H](F)C4)c4c3CC(O)C4)CC2)c1C (single isomer, unassigned) [Example 415]", "high"],
  ["Cc1cccc(N2CCN(C(=O)Cn3nc(C(=O)N4CCC(NC(N)=O)CC4)c4c3C[C@H]3C[C@@H]43)CC2)c1C", "medium"],
  ["Cc1cccc(N2CCN(C(=O)Cn3nc(C(=O)N4CCC(C)(C(N)=O)CC4)c4c3C[C@H]3C[C@@H]43)CC2)c1C", "low"],
  ["O=C(Cn1nc(C(=O)N2CCC(O)(CF)CC2)c2c1CCC2)N1CCN(c2cccc3c(F)cccc23)CC1", "high"],
  ["COC1CCN(C(=O)c2nn(CC(=O)N3CCN(c4cccc(C)c4C)CC3)c3c2CCC3)CC1", "low"],
  ["Cc1cccc(N2CCN(C(=O)Cn3nc(C(=O)N4CCC(NC(=O)NN)CC4)c4c3C[C@H]3C[C@@H]43)CC2)c1C", "high"],
  ["Cc1cccc(N2CCN(C(=O)Cn3nc(C(=O)N4CCC(O)(CO)CC4)c4c3C[C@H]3C[C@@H]43)CC2)c1C", "low"]
]}

----------
biological target: IDO1 (Homo sapiens, UniProt P14902); assay: IDO1 Cellular Assay in HeLa Cells Stimulated with IFNγ; assay type: cell-based; conditions: read-out: HeLa Cell Potency, IC50
Sorting guide: entries reporting IC50 beneath 0.01 µM go in the t pile, the rest go in the f pile.

{"columns": ["molecule", "label_value"],
 "data": [
  ["Cc1cccc(N2CCN(C(=O)Cn3nc(C(=O)N4CCC(n5ncnn5)CC4)c4c3CCC4)CC2)c1C", "t"],
  ["Cc1cccc(N2CCN(C(=O)Cn3nc(C(=O)N4CCC(F)(F)C(O)C4)c4c3CCC4)CC2)c1C (centres unmarked)", "f"],
  ["CC(=O)NC1CCN(C(=O)c2nn(CC(=O)N3CCN(c4cccc(C)c4Cl)CC3)c3c2CCCC3)CC1", "t"],
  ["Cc1cccc(N2CCN(C(=O)Cn3nc(C(=O)N4CC5CCC4CC5)c4c3CCC4)CC2)c1C", "f"],
  ["C[C@@H]1CN(C(=O)c2nn(CC(=O)N3CCN(c4cccc5c4CC5)CC3)c3c2CCC3)C[C@H](C)O1", "f"],
  ["Cc1c(F)ccc(N2CCN(C(=O)Cn3nc(C(=O)N4CCC(O)C(CO)C4)c4c3C[C@@H]3C[C@H]43)C3(CC3)C2)c1C (stereo in doubt)", "t"],
  ["Cc1cccc(N2CCN(C(=O)Cn3nc(C(=O)N4CC5CC4CC5O)c4c3CCC4)CC2)c1C (centres unmarked)", "f"],
  ["Cc1cccc(N2CCN(C(=O)Cn3nc(C(=O)N4C[C@@H](C)O[C@@H](C)C4)c4c3C3CC3C4)CC2)c1C (some centres unmarked) [Example 311]", "t"],
  ["Cc1cccc(N2CCN(C(=O)Cn3nc(C(=O)N4CC[C@H]5[C@@H](C4)NC(=O)N5C)c4c3C[C@H]3C[C@@H]43)CC2)c1C", "f"],
  ["Cc1cccc(N2CCN(C(=O)Cn3nc(C(=O)N4CCCC4)c4c3CCCCC4)CC2)c1C", "t"],
  ["Cc1cccc(N2CCN(C(=O)Cn3nc(C(=O)N4CCC5(CC4)COCC5O)c4c3CCC4)CC2)c1C (centres unmarked) [Example 182]", "t"],
  ["Cc1cccc(N2CCN(C(=O)Cn3nc(C(=O)N4CC[C@H](N5CCC(O)CC5)[C@H](F)C4)c4c3CC(F)(F)CC4)CC2)c1C (stereo in doubt)", "f"],
  ["O=C(Cn1nc(C(=O)N2CCC(O)CC2)c2c1CCC2)N1CCN(C2CCCc3ccccc32)CC1 (single isomer, unassigned) [Example 429]", "f"]
]}

----------
The following compounds are shown together with reported pIC50 values.
biological target: IDO1 (Homo sapiens, UniProt P14902); assay: IDO1 Cellular Assay in HeLa Cells Stimulated with IFNγ; type: cell-based; conditions: read-out: HeLa Cell Potency, IC50
pIC50: −log10 of the molar value.

{"columns": ["compound", "target_under_test", "pIC50"],
 "data": [
  ["C[C@@H]1CN(C(=O)c2nn(CC(=O)N3CCN(c4cccc(Cl)c4F)CC3)c3c2CCC3)C[C@H](C)O1", "IDO1 (Homo sapiens, UniProt P14902)", 7.42],
  ["Cc1cccc(N2CCN(C(=O)Cn3nc(C(=O)N4CCC(c5cc[nH]n5)CC4)c4c3CCC4)CC2)c1C", "IDO1 (Homo sapiens, UniProt P14902)", 8.75],
  ["O=C(Cn1nc(C(=O)N2CC[C@H](O)[C@@H](F)C2)c2c1CCC2)N1CCN(C2CCCc3ccccc32)CC1 (some centres unmarked) [Example 433]", "IDO1 (Homo sapiens, UniProt P14902)", 6.31],
  ["Cc1c(Cl)cccc1N1CCN(C(=O)Cn2nc(C(=O)N3CC[C@@H](O)[C@@H](F)C3)c3c2CCC(F)(F)C3)CC1", "IDO1 (Homo sapiens, UniProt P14902)", 8.03],
  ["Cc1cccc(N2CCN(C(=O)Cn3nc(C(=O)N4CC[C@@H](O)[C@@H](C)C4)c4c3CCC4)CC2)c1C", "IDO1 (Homo sapiens, UniProt P14902)", 8.41],
  ["Cc1c(N2CCN(C(=O)Cn3nc(C(=O)N4CCC(OCCO)CC4)c4c3C[C@H]3C[C@@H]43)CC2)cccc1C(F)(F)F", "IDO1 (Homo sapiens, UniProt P14902)", 8.79],
  ["Cc1c(Cl)cccc1N1CCN(C(=O)Cn2nc(C(=O)N3CC[C@@H](O)[C@@H](F)C3)c3c2CCCC3)CC1", "IDO1 (Homo sapiens, UniProt P14902)", 8.52],
  ["Cc1cccc(N2CCN(C(=O)Cn3nc(C(=O)N4CCS(=N)(=O)CC4)c4c3C[C@H]3C[C@@H]43)CC2)c1C", "IDO1 (Homo sapiens, UniProt P14902)", 7.41],
  ["Cc1cccc(N2CCN(C(=O)Cn3nc(C(=O)N4CC[C@H](F)[C@@H](O)C4)c4c3CCC4)CC2)c1C (racemic)", "IDO1 (Homo sapiens, UniProt P14902)", 7.51],
  ["CC(=O)NC1CCN(C(=O)c2nn(CC(=O)N3CCN(c4cccc(C)c4C)CC3)c3c2CCCC3)CC1", "IDO1 (Homo sapiens, UniProt P14902)", 8.58],
  ["Cc1cccc(N2CCN(C(=O)Cn3nc(C(=O)N4CCC5(CO)CC4C5)c4c3C[C@H]3C[C@@H]43)C(C)(C)C2)c1C", "IDO1 (Homo sapiens, UniProt P14902)", 8.06],
  ["Cc1cccc(N2CCN(C(=O)Cn3nc(C(=O)N4CC5C(N)C5C4)c4c3CCC4)CC2)c1C (centres unmarked)", "IDO1 (Homo sapiens, UniProt P14902)", 6.99],
  ["COc1c(F)cc(N2CCN(C(=O)Cn3nc(C(=O)N4C[C@@H](C)O[C@@H](C)C4)c4c3CCC4)CC2)cc1F", "IDO1 (Homo sapiens, UniProt P14902)", 6.96],
  ["C[C@@H]1CN(C(=O)c2nn(CC(=O)N3CCN(c4cccc(Cl)c4Cl)CC3)c3c2CCC3)C[C@H](C)O1", "IDO1 (Homo sapiens, UniProt P14902)", 7.92]
]}
